Multi-source literature compilation: pKi on Alpha-1D adrenergic receptor (Homo sapiens, UniProt P25100).
Molecular target: Alpha-1D adrenergic receptor (Homo sapiens, UniProt P25100)
Sequence (P25100 whole entry): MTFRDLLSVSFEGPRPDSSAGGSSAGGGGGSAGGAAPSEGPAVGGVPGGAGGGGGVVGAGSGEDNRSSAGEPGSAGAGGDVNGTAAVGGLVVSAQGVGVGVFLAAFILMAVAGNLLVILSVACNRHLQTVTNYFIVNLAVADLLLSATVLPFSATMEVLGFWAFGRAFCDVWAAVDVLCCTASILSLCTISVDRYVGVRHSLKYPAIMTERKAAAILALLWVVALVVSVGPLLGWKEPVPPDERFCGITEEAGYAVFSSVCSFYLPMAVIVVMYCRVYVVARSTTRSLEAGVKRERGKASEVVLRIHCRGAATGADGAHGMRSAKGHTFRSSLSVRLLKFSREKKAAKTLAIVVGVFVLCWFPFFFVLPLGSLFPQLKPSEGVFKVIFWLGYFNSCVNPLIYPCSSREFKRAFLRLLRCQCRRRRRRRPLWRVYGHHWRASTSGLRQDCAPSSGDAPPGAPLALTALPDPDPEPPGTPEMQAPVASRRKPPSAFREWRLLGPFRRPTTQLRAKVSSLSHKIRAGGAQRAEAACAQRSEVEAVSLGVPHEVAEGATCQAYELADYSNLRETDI
pKi: −log10 of the molar value.
assayReadout: pKi

compound=O=S1(=O)CCCc2cccc(NCC3=NCCN3)c21 targetofassay="Alpha-1D adrenergic receptor (Homo sapiens, UniProt P25100)" datavalue="< 4.80"
compound=N#Cc1cc(F)cc(C#Cc2csc(F)n2)c1 targetofassay="Alpha-1D adrenergic receptor (Homo sapiens, UniProt P25100)" datavalue="< 5.00"
compound="COc1cccc(OC)c1OCCNCC1OCCOC1(c1ccccc1)c1ccccc1 (stereo not given)" targetofassay="Alpha-1D adrenergic receptor (Homo sapiens, UniProt P25100)" datavalue="< 6.00"
compound=CC(C)Oc1ccccc1N1CCN(Cc2nc(CN3CCCCCC3=O)co2)CC1 targetofassay="Alpha-1D adrenergic receptor (Homo sapiens, UniProt P25100)" datavalue="< 5.30"
compound=CC(C)Oc1ccccc1N1CCN(Cc2nc(CN3CCCCC3=O)co2)CC1 targetofassay="Alpha-1D adrenergic receptor (Homo sapiens, UniProt P25100)" datavalue="< 5.30"
